Value source: patent US10836756B2

# measurement.description: Solubility of compound G (amorphous) and its monomaleate salt (crystalline) in water, buffers and solvents
# Type: physicochemical
# condition.notes: 10% PG, aqueous with cosolvent or surfactant or cyclodextrin, PG, 10%; amorphous; read-out: Solubility
observable: solubility (mg/mL)
Kindly answer with a numeric value in mg/mL, unit omitted.

Please report the recorded solubility for COc1ccc([C@@H](O)[C@H](NC(=O)[C@H](C)NC(=O)CN2CCOCC2)C(=O)N[C@@H](CC2=CCCC2)C(=O)[C@@]2(C)CO2)cc1 [compound G] .
12.1

###

# measurement.description: Solubility of compound G (amorphous) and its monomaleate salt (crystalline) in water, buffers and solvents
# Format: physicochemical
# condition.notes: 25 mM Na citrate buffer, pH 6.3, aqueous buffer, 25 mM Na Citrate, pH 6.3; amorphous; read-out: Solubility
observable: solubility (µg/mL)
Kindly answer with a numeric value in µg/mL, unit omitted.

Please report the recorded solubility for "COc1ccc([C@@H](O)[C@H](NC(=O)[C@H](C)NC(=O)CN2CCOCC2)C(=O)N[C@@H](CC2=CCCC2)C(=O)[C@@]2(C)CO2)cc1" .
9800

###

# measurement.description: Solubility of compound G (amorphous) and its monomaleate salt (crystalline) in water, buffers and solvents
# Format: physicochemical
# condition.notes: 100% EtOH, organic solvent or mixture, EtOH, 100%; amorphous; read-out: Solubility
observable: solubility

Please report the recorded solubility for "COc1ccc([C@@H](O)[C@H](NC(=O)[C@H](C)NC(=O)CN2CCOCC2)C(=O)N[C@@H](CC2=CCCC2)C(=O)[C@@]2(C)CO2)cc1" .
> 100 mg/mL

###

# measurement.description: Solubility of compound G (amorphous) and its monomaleate salt (crystalline) in water, buffers and solvents
# Assay type: physicochemical
# condition.notes: 25 mM Na citrate buffer, pH 4.9, aqueous buffer, 25 mM Na Citrate, pH 4.9; amorphous; read-out: Solubility
observable: solubility (mg/mL)
Kindly answer with a numeric value in mg/mL, unit omitted.

Please report the recorded solubility for "COc1ccc([C@@H](O)[C@H](NC(=O)[C@H](C)NC(=O)CN2CCOCC2)C(=O)N[C@@H](CC2=CCCC2)C(=O)[C@@]2(C)CO2)cc1" .
46

###

# measurement.description: Solubility of compound G (amorphous) and its monomaleate salt (crystalline) in water, buffers and solvents
# Assay type: physicochemical
# condition.notes: 10% glycerol, aqueous with cosolvent or surfactant or cyclodextrin, glycerol, 10%; amorphous; read-out: Solubility
observable: solubility (µg/mL)
Kindly answer with a numeric value in µg/mL, unit omitted.

Please report the recorded solubility for "COc1ccc([C@@H](O)[C@H](NC(=O)[C@H](C)NC(=O)CN2CCOCC2)C(=O)N[C@@H](CC2=CCCC2)C(=O)[C@@]2(C)CO2)cc1" .
8600

###

# measurement.description: Solubility of compound G (amorphous) and its monomaleate salt (crystalline) in water, buffers and solvents
# Assay type: physicochemical
# condition.notes: 100% PG, organic solvent or mixture, PG, 100%; amorphous; read-out: Solubility
observable: solubility

Please report the recorded solubility for "COc1ccc([C@@H](O)[C@H](NC(=O)[C@H](C)NC(=O)CN2CCOCC2)C(=O)N[C@@H](CC2=CCCC2)C(=O)[C@@]2(C)CO2)cc1" .
> 100 mg/mL

###

# measurement.description: Solubility of compound G (amorphous) and its monomaleate salt (crystalline) in water, buffers and solvents
# Format: physicochemical
# condition.notes: aqueous medium, aqueous; read-out: aqueous solubility
Where a name gives a salt, the structure may show the parent alone.
observable: solubility

Please report the recorded solubility for COc1ccc([C@@H](O)[C@H](NC(=O)[C@H](C)NC(=O)CN2CCOCC2)C(=O)N[C@@H](CC2=CCCC2)C(=O)[C@@]2(C)CO2)cc1 [monomaleate salt of compound G] .
> 100 mg/mL

###

# measurement.description: Solubility of compound G (amorphous) and its monomaleate salt (crystalline) in water, buffers and solvents
# Assay type: physicochemical
# condition.notes: 100% PEG 400, organic solvent or mixture, PEG 400, 100%; amorphous; read-out: Solubility
observable: solubility

Please report the recorded solubility for "COc1ccc([C@@H](O)[C@H](NC(=O)[C@H](C)NC(=O)CN2CCOCC2)C(=O)N[C@@H](CC2=CCCC2)C(=O)[C@@]2(C)CO2)cc1" .
> 50 mg/mL

###

# measurement.description: Solubility of compound G (amorphous) and its monomaleate salt (crystalline) in water, buffers and solvents
# Format: physicochemical
# condition.notes: 33% PG, aqueous with cosolvent or surfactant or cyclodextrin, PG, 33%; amorphous; read-out: Solubility
observable: solubility

Please report the recorded solubility for "COc1ccc([C@@H](O)[C@H](NC(=O)[C@H](C)NC(=O)CN2CCOCC2)C(=O)N[C@@H](CC2=CCCC2)C(=O)[C@@]2(C)CO2)cc1" .
20.5 mg/mL

###

# measurement.description: Solubility of compound G (amorphous) and its monomaleate salt (crystalline) in water, buffers and solvents
# Format: physicochemical
# condition.notes: 67% NMP, aqueous with cosolvent or surfactant or cyclodextrin, NMP, 67%; amorphous; read-out: Solubility
observable: solubility

Please report the recorded solubility for COc1ccc([C@@H](O)[C@H](NC(=O)[C@H](C)NC(=O)CN2CCOCC2)C(=O)N[C@@H](CC2=CCCC2)C(=O)[C@@]2(C)CO2)cc1 [compound G] .
> 100 mg/mL

###

# measurement.description: Solubility of compound G (amorphous) and its monomaleate salt (crystalline) in water, buffers and solvents
# Format: physicochemical
# condition.notes: 10% NMP, aqueous with cosolvent or surfactant or cyclodextrin, NMP, 10%; amorphous; read-out: Solubility
observable: solubility
Value and unit, in that order.

Please report the recorded solubility for COc1ccc([C@@H](O)[C@H](NC(=O)[C@H](C)NC(=O)CN2CCOCC2)C(=O)N[C@@H](CC2=CCCC2)C(=O)[C@@]2(C)CO2)cc1 [compound G] .
28.8 mg/mL

###

# measurement.description: Solubility of compound G (amorphous) and its monomaleate salt (crystalline) in water, buffers and solvents
# Format: physicochemical
# condition.notes: 25 mM Na citrate buffer, pH 6.8, aqueous buffer, 25 mM Na Citrate, pH 6.8; amorphous; read-out: Solubility
observable: solubility (µg/mL)
Kindly answer with a numeric value in µg/mL, unit omitted.

Please report the recorded solubility for "COc1ccc([C@@H](O)[C@H](NC(=O)[C@H](C)NC(=O)CN2CCOCC2)C(=O)N[C@@H](CC2=CCCC2)C(=O)[C@@]2(C)CO2)cc1" .
8800

###

# measurement.description: Solubility of compound G (amorphous) and its monomaleate salt (crystalline) in water, buffers and solvents
# Assay type: physicochemical
# condition.notes: PBS, pH 7.2, aqueous buffer, PBS, pH 7.2; amorphous; read-out: Solubility
observable: solubility
Value and unit, in that order.

Please report the recorded solubility for COc1ccc([C@@H](O)[C@H](NC(=O)[C@H](C)NC(=O)CN2CCOCC2)C(=O)N[C@@H](CC2=CCCC2)C(=O)[C@@]2(C)CO2)cc1 [compound G] .
7600 µg/mL

###

# measurement.description: Solubility of compound G (amorphous) and its monomaleate salt (crystalline) in water, buffers and solvents
# Type: physicochemical
# condition.notes: acetone, organic solvent or mixture, Acetone; crystalline; read-out: Solubility
Counter-ions that a name gives are not always drawn.
observable: solubility (µg/mL)
Kindly answer with a numeric value in µg/mL, unit omitted.

Please report the recorded solubility for COc1ccc([C@@H](O)[C@H](NC(=O)[C@H](C)NC(=O)CN2CCOCC2)C(=O)N[C@@H](CC2=CCCC2)C(=O)[C@@]2(C)CO2)cc1 [monomaleate salt of compound G] .
3190

###

# measurement.description: Solubility of compound G (amorphous) and its monomaleate salt (crystalline) in water, buffers and solvents
# Format: physicochemical
# condition.notes: 25 mM Na citrate buffer, pH 5.4, aqueous buffer, 25 mM Na Citrate, pH 5.4; amorphous; read-out: Solubility
observable: solubility (mg/mL)
Kindly answer with a numeric value in mg/mL, unit omitted.

Please report the recorded solubility for COc1ccc([C@@H](O)[C@H](NC(=O)[C@H](C)NC(=O)CN2CCOCC2)C(=O)N[C@@H](CC2=CCCC2)C(=O)[C@@]2(C)CO2)cc1 [compound G] .
19.5

###

# measurement.description: Solubility of compound G (amorphous) and its monomaleate salt (crystalline) in water, buffers and solvents
# Format: physicochemical
# condition.notes: 33% glycerol, aqueous with cosolvent or surfactant or cyclodextrin, glycerol, 33%; amorphous; read-out: Solubility
observable: solubility (µg/mL)
Kindly answer with a numeric value in µg/mL, unit omitted.

Please report the recorded solubility for "COc1ccc([C@@H](O)[C@H](NC(=O)[C@H](C)NC(=O)CN2CCOCC2)C(=O)N[C@@H](CC2=CCCC2)C(=O)[C@@]2(C)CO2)cc1" .
5800

###

# measurement.description: Solubility of compound G (amorphous) and its monomaleate salt (crystalline) in water, buffers and solvents
# Format: physicochemical
# condition.notes: 33% PEG 400, aqueous with cosolvent or surfactant or cyclodextrin, PEG 400, 33%; amorphous; read-out: Solubility
observable: solubility
Value and unit, in that order.

Please report the recorded solubility for "COc1ccc([C@@H](O)[C@H](NC(=O)[C@H](C)NC(=O)CN2CCOCC2)C(=O)N[C@@H](CC2=CCCC2)C(=O)[C@@]2(C)CO2)cc1" .
17.4 mg/mL
